- Tested on: HT29 colon
- assay.protocol: NCI tumour cell line growth inhibition, 48 h; in the data active means GI50 below about 0.43 µM; inactive means the rest
Outcome field: choose from active, inactive

# count of solved cases: 3
{"columns": ["compound", "class"],
 "data": [
  ["CCCN1C(=O)NC(=O)C(CC)(N2C(=O)c3c(F)c(F)c(F)c(F)c3C2=O)C1=O (centres undefined)", "inactive"],
  ["COc1ccc(-c2noc(C(=O)O)c2-c2cc(OC)c(OC)c(OC)c2)cc1", "inactive"],
  ["CCOc1ccccc1CCN=C1NC(=O)/C(=C/c2ccc3ncccc3c2)S1", "inactive"]
]}

(Q) Tell me the recorded outcome of this test for Cc1c2cnccc2c(C)c2c1c1cc(C#N)ccc1n2C .
(A) active

(Q) Tell me the recorded outcome of this test for N#CC(C#N)=C/C=C(\Cl)c1ccc(Cl)cc1 .
(A) inactive

(Q) Tell me the recorded outcome of this test for N#C[Se]Cc1cc(-c2ccccc2)n(-c2ccc(S(N)(=O)=O)cc2)n1 .
(A) inactive

(Q) Tell me the recorded outcome of this test for COc1ccc(C2=Nn3c(nnc3-c3cc(Cl)cc(Cl)c3Cl)SC2)cc1 .
(A) active

(Q) Tell me the recorded outcome of this test for CN1CCC(CNc2cc(C3(C(=O)Nc4cc(C(=O)Nc5ccc(Cl)c(C(F)(F)F)c5)ccc4F)CC3)ncn2)CC1 .
(A) inactive

(Q) Tell me the recorded outcome of this test for O=S(=O)(/N=c1\scc(-c2ccccc2)n1-c1ccccc1)c1ccc(N2N=C3c4ccccc4CC3C2c2ccc(Cl)cc2)cc1 (centres undefined) .
(A) inactive

====

- Tested on: UACC-62 melanoma
- assay.protocol: NCI tumour cell line growth inhibition, 48 h
value.kind: TGI

Some compounds with recorded TGI:
{"columns": ["compound", "TGI"],
 "data": [
  ["O=C1[C@H](O)[C@@H]2C(O)O[C@H]3[C@@H]2N1C[C@H]3[Si](c1ccccc1)(c1ccccc1)c1ccccc1 (stereo not given in full)", "> 100 µM"],
  ["CNC(=S)Nc1ccc(OC)c2ccccc12", "> 10 µM"],
  ["CC1=C([Se]CC(OC(=O)CC[Se]c2ccccc2)C(=O)NC(C)(C)C)C(=O)c2ccccc2C1=O (stereo not given)", "2.83 µM"],
  ["Cn1c(=O)c2c(nc3n(CC(O)CCl)c(=O)ccn23)n(C)c1=O (stereo not given)", "> 100 µM"]
]}

Please find the next compound below.
(Q) TGI lookup needed for O=C(N/N=C/c1ccccc1O)N/N=C/c1ccccc1O , thanks.
(A) > 100 µM

====

- System: DU-145 prostate
- assay.protocol: NCI tumour cell line growth inhibition, 48 h
// TGI lookup, one value per entry
State just the number; it will be interpreted in µM.

Some compounds with recorded TGI:
{"columns": ["compound", "TGI, µM"],
 "data": [
  ["CCCN1C(=O)NC(=O)C(CC)(N2C(=O)c3c(F)c(F)c(F)c(F)c3C2=O)C1=O (stereo not given)", 3.27],
  ["O=C(Oc1cccnc1)c1cccnc1Nc1ccnc(C(F)(F)F)c1", 42.1],
  ["CCN(CCCOc1ccccc1)CCN(CC)CCCOc1ccccc1", 23.9]
]}

Please find the next compound below.
(Q) TGI lookup needed for CC1=C([Se]CC(OC(=O)CC[Se]c2ccccc2)C(=O)NC(C)(C)C)C(=O)c2ccccc2C1=O (stereo not given) , thanks.
(A) 3.6

====

- Test system: SF-295 CNS
- assay.protocol: NCI tumour cell line growth inhibition, 48 h; in the data active means GI50 below about 0.43 µM; inactive means the rest
Outcome field: choose from label 1 = active, label 0 = inactive

# count of solved cases: 3
{"columns": ["compound", "class"],
 "data": [
  ["CCCN1C(=O)NC(=O)C(CC)(N2C(=O)c3c(F)c(F)c(F)c(F)c3C2=O)C1=O (stereo not given)", "label 0"],
  ["CCN1C(=O)N(CC)C2C1NN=c1s/c(=C\\c3ccc(Cl)cc3Cl)c(=O)n12 (stereo not given)", "label 1"],
  ["Oc1cccc(Nc2nc3ccccc3c3occc23)c1", "label 0"]
]}

(Q) Tell me the recorded outcome of this test for Clc1ccc(-c2cn3ccnc3c(-c3ccc(Cl)cc3)n2)cc1 .
(A) label 0

(Q) Tell me the recorded outcome of this test for O=C(Oc1cccnc1)c1cccnc1Nc1ccnc(C(F)(F)F)c1 .
(A) label 0

(Q) Tell me the recorded outcome of this test for O=C1OCC2=C1C(c1cccc(F)c1)c1cc3c(cc1N2CCO)OCO3 (stereo not given) .
(A) label 0

(Q) Tell me the recorded outcome of this test for COc1cc(/C=C/C(=O)/C=C/c2cc(OC)c3c(c2)OCO3)cc2c1OCO2 .
(A) label 0

(Q) Tell me the recorded outcome of this test for c1ccc(C2ONC3=NCCN32)cc1 (stereo not given) .
(A) label 0

(Q) Tell me the recorded outcome of this test for O=S(=O)(/N=c1\scc(-c2ccccc2)n1-c1ccccc1)c1ccc(N2N=C3c4ccccc4CC3C2c2ccc(Cl)cc2)cc1 (stereo not given) .
(A) label 0

(Q) Tell me the recorded outcome of this test for O=C(NCC1CC1)c1ccc(-c2cccc(C(=O)NC3CC3)c2)cc1 .
(A) label 0

====

- Tested on: NCI-H226 lung
- assay.protocol: NCI tumour cell line growth inhibition, 48 h
value.kind: TGI

Some compounds with recorded TGI:
{"columns": ["compound", "value.measured"],
 "data": [
  ["Cc1cc(C)nc(NS(=O)(=O)c2ccc(NC(=O)c3c4ccccc4nc4ccccc34)cc2)n1", "> 100 µM"],
  ["COc1cccc(N2C(=O)CSC2c2cccc(Oc3ccccc3)c2)c1 (stereo unspecified)", "69.1 µM"],
  ["COc1cc(C)ccc1C(=O)c1ccc(C)cc1OC", "72.7 µM"]
]}

(Q) TGI lookup needed for NC(=O)Nc1c(Cl)cc(S(N)(=O)=O)cc1Cl , thanks.
(A) > 100 µM

(Q) TGI lookup needed for CCOC(=O)Cc1nc2ccc3c(c2[nH]c1=O)C(=O)c1ccccc1C3=O , thanks.
(A) > 100 µM

(Q) TGI lookup needed for O=C(NCC1CC1)c1ccc(-c2cccc(C(=O)NC3CC3)c2)cc1 , thanks.
(A) > 25 µM

(Q) TGI lookup needed for NC(=O)CNC(=O)[C@@H]1CC(OCCC(=O)O)CN1C(=O)C1CCCN1C(=O)OCc1ccccc1 (stereo partly specified) , thanks.
(A) > 100 µM

(Q) TGI lookup needed for O=C(Oc1cccnc1)c1cccnc1Nc1ccnc(C(F)(F)F)c1 , thanks.
(A) 71.4 µM

(Q) TGI lookup needed for Nc1n(CC(=O)c2ccccc2)nc2sc(-c3ccccc3)n[n+]12 , thanks.
(A) 52.2 µM

(Q) TGI lookup needed for O=S(=O)(Nc1ccc(Br)cc1)c1ccc(-c2cnc(C3CC3)o2)cc1 , thanks.
(A) 25 µM

(Q) TGI lookup needed for COc1cccc(-c2nc3cc(NC(=O)c4ccc(Cl)c(C#N)c4)ccc3o2)c1 , thanks.
(A) > 100 µM

(Q) TGI lookup needed for O=C(c1ccc2ccccc2c1)c1c(C(F)(F)F)n([O-])c2ccc(C(F)(F)F)cc2[n+]1=O , thanks.
(A) 3.35 µM

(Q) TGI lookup needed for c1cc[c]([Sn][c]2ccccc2)cc1 , thanks.
(A) 54.8 µM

(Q) TGI lookup needed for CC1CC[C@@]2(OC1)OC1C[C@H]3[C@@H]4CC=C5CC(OC6OC(CO)C(OC7OC(CO)C(O)C(OC8OCC(O)C(O)C8O)C7OC7OC(CO)C(OC8OC(C)C(OC9OC(C)C(O)C(O)C9O)C(O)C8O)C(O)C7O)C(O)C6O)CCC5(C)[C@H]4CCC3(C)C1[C@@H]2C (stereo partly specified) , thanks.
(A) 18.1 µM

(Q) TGI lookup needed for COC(=O)C1=C(O)C(C(=O)OC)C2CC(=O)CC1C2(C)C (stereo unspecified) , thanks.
(A) > 100 µM

====

- System: OVCAR-3 ovarian
- assay.protocol: NCI tumour cell line growth inhibition, 48 h
// TGI lookup, one value per entry
State just the number; it will be interpreted in µM.

Some compounds with recorded TGI:
{"columns": ["compound", "TGI [µM]"],
 "data": [
  ["Oc1cccc(Nc2nc3ccccc3c3occc23)c1", 12.9],
  ["Nc1nc2ccc(-c3nc4ccc5[nH]ncc5c4c4c3CCC4)cc2s1", 10.8],
  ["FC(F)(F)c1cccc(-c2nc3nc(Cl)c(Cl)nc3[nH]2)c1", 14.9]
]}

(Q) TGI lookup needed for Cc1ccc2cnc(N)c(C#Cc3cc(C(=O)Nc4ccc(CN5CCN(C)CC5)c(C(F)(F)F)c4)cnc3C)c2c1 , thanks.
(A) 2.66

(Q) TGI lookup needed for CCC1(O)C(=O)OCc2c1cc1n(c2=O)Cc2cc3ccccc3nc2-1 (centres undefined) , thanks.
(A) 2.72

====

- Test system: SF-295 CNS
- assay.protocol: NCI tumour cell line growth inhibition, 48 h
// GI50 lookup, one value per entry

(Q) GI50 lookup needed for COc1ccc(C2=Nn3c(nnc3-c3cc(Cl)cc(Cl)c3Cl)SC2)cc1 , thanks.
(A) 0.0576 µM

(Q) GI50 lookup needed for COc1ccc2c(c1)C(=O)/C(=C/c1cccc(OCC(=O)c3ccccc3)c1)CC2 , thanks.
(A) 10.3 µM

(Q) GI50 lookup needed for O=C1/C(=C/c2ccc([N+](=O)[O-])cc2)CN(C(=O)CCN2CCC(=NO)CC2)C/C1=C\c1ccc([N+](=O)[O-])cc1 , thanks.
(A) 2.09 µM

(Q) GI50 lookup needed for COc1ccc(-c2noc(C(=O)O)c2-c2cc(OC)c(OC)c(OC)c2)cc1 , thanks.
(A) 1.57 µM

FYI, the data here is from PubChem BioAssay (NCI).
